Values were extracted from ChEMBL document CHEMBL3988442.

Tested on: Wolbachia pipientis
experimental-protocol: Anti-Wolbachia Cell-Based Screen
Format: functional
Design: scale not given: in the data most compounds retested in dose-response had high values
settings: 5 µM
Hit rate of the full screen: of about 48,000 compounds, about 13,000 (27%) showed an effect of 50% or more. The list shows a part of the results.
property: Percent Effect (%)

• CN(C)C(=O)COCC1CN(Cc2cccs2)Cc2ncn(C)c21.O=C(O)C(F)(F)F.O=C(O)C(F)(F)F (configuration not stated) = 100.2
• Nc1nc(CN2CCN(c3nccs3)CC2)cs1 = -10.1
• O=C(CNc1ccc(F)cc1OCC(F)(F)F)NCc1ccco1 = -21.13
• Cc1cccc(CN2Cc3ncn(C)c3C(COCC(=O)N(C)C)C2)n1.O=C(O)C(F)(F)F.O=C(O)C(F)(F)F.O=C(O)C(F)(F)F (configuration not stated) = 115.6
• CC(C)c1nnc(CN(C)C(c2ccccc2)c2ccc(F)cc2)o1 (configuration not stated) = 6.032
• CC(C)(Oc1ccc(F)cc1)C(=O)NCc1ccco1 = -9.094
• CCCc1noc(CN2CCN(c3nccs3)CC2)n1 = 101
• c1csc(-c2cc(CN3CCN(c4nccs4)CC3)no2)c1 = 7.977
• CC(C)(C)Oc1ccc(NCC(=O)NCc2ccco2)cc1 = 90.6
• CC(C)OCCOCc1cccc(NC(=O)NCC(=O)N(C)C)c1 = -22.62
• Cl.Cn1ncc2c1CCCC2NCc1cc(Br)cs1 (configuration not stated) = 7.416
• O=C(CNc1ccc(OC2CCOC2)cc1)NCc1ccc(F)cc1 (configuration not stated) = 77.11
• O=C(Cc1cccs1)NCc1ccnc(OC2CCOCC2)c1 = -13.9
• CCCc1noc(CN2CCN(CCC(C)C)CC2)n1 = 7.482
• Cc1ccccc1C1CCCN(C(=O)c2c[nH]c(=O)c(Cl)c2)C1 (configuration not stated) = 0.979
• O=C(CNc1cc2c(cc1Cl)OCCCO2)NCc1ccc(F)cc1 = 5.92
• Cc1ccnc(N2CCCC(c3noc(C(C)C)n3)C2)n1 (configuration not stated) = 19.69
• CN(C)C(=O)CN1C[C@H]2CCN(C(=O)C3CCCO3)CC[C@H]2S1(=O)=O (some centres not stated) = -8.272
• CN(C)C(=O)COCC1CN(Cc2ccoc2)Cc2ncn(C)c21.O=C(O)C(F)(F)F.O=C(O)C(F)(F)F (configuration not stated) = 111.6
• O=C(CNc1ccc(OC2CCOC2)cc1)NCc1cccs1 (configuration not stated) = 90.04
• Cc1cccc(CN2CCc3c(COCC(=O)N(C)C)nn(C)c3C2)n1.O=C(O)C(F)(F)F.O=C(O)C(F)(F)F = 1.951
• CC(C)Cc1noc(CN2CCN(c3nccs3)CC2)n1 = -10.34

###

System: Wolbachia pipientis
experimental-protocol: Anti-Wolbachia Cell-Based Screen
Assay type: functional
Design: scale not given: in the data most compounds retested in dose-response had high values
settings: 5 µM
Hit rate of the full screen: of about 48,000 compounds, about 13,000 (27%) showed an effect of 50% or more. The list shows a part of the results.
Mark each entry label 1 if its Percent Effect sits below 10%, and label 0 for all others.

* Cc1nn(-c2ccccc2Cl)c(C)c1CCC(=O)NCCS(C)(=O)=O | label 0
* CC(C)c1cc(C(=O)N2Cc3ccccc3CC2C(=O)O)nn1C (stereo unspecified) | label 0
* Cc1nn(-c2ccccc2Cl)c(C)c1CCC(=O)O | label 0
* CCN(CC)CCNC(=O)CCc1c(C)nn(-c2ccccc2Br)c1C | label 0
* COC(=O)C(CCSC)NC(=O)Cc1c(C)nn(-c2ccccc2)c1C (stereo unspecified) | label 1
* CCCNC(=O)C(C)NC(=O)CCc1ccccc1Br (stereo unspecified) | label 1

###

Parameter: Percent Effect. Scope: all listed entries.
Test system: Wolbachia pipientis
experimental-protocol: Anti-Wolbachia Cell-Based Screen
Format: functional
Parameters: scale not given: in the data most compounds retested in dose-response had high values
settings: 5 µM
The campaign covered roughly 48,000 compounds. About 13,000 (27%) showed an effect of 50% or more. This is one part of the list.
property: Percent Effect (%)

- CCOCC(=O)NCC1Cn2nnc(-c3cccc(F)c3)c2CO1 (stereo not given): -1.189
- CN(C)CCn1c2c(ccc1=O)CCN(Cc1cnn(C)c1)CC2.O=C(O)C(F)(F)F.O=C(O)C(F)(F)F: 120.7
- CCCOc1ccc(CN)c(OC(F)F)c1: 2.024
- O=C(O)C(F)(F)F.O=C(O)C(F)(F)F.c1snnc1CN1C[C@H]2CCC[C@@H](CN3CCOCC3)[C@H]2C1: 4.838
- COCc1nn(C)c2c1CCN(Cc1cnn(C)c1)C2.O=C(O)C(F)(F)F: -18.26

###

Test system: Wolbachia pipientis
experimental-protocol: Anti-Wolbachia Cell-Based Screen
Format: functional
Set-up: scale not given: in the data most compounds retested in dose-response had high values
settings: 5 µM
Out of some 48,000 compounds screened, about 13,000 (27%) showed an effect of 50% or more. The list shows a part of the results.
property: Percent Effect (%)

* CCC(=O)N1CCC(c2nc(N3CCOCC3)ncc2S(C)(=O)=O)CC1 | 98.3
* O=c1n(Cc2cccc(F)c2)nc2ncccn12 | 124.9
* CCN1CCOCC12CCN(c1ccc(C#N)cc1)CC2.O=C(O)C(F)(F)F | -6.455
* COCc1nc2nc(O)c3c(n2n1)NC(=O)CC3c1ccccc1Cl (stereo not drawn) | -6.394
* CCOc1cc(C)nc(N2CCN(C(=O)CC)CC2)n1 | -2.122
* CCC(=O)N1CCC(c2nc(N3CCCC3)ncc2S(C)(=O)=O)CC1 | 99.88
* CCN1CCOCC12CCN(c1cnccn1)CC2.O=C(O)C(F)(F)F | 94.98
* O=C(NCc1cccnc1)[C@@H]1CC[C@@H]2[C@@H](CCN2c2ncccn2)O1.O=C(O)C(F)(F)F.O=C(O)C(F)(F)F | 3.562
* CCN(C)CC(=O)N1CCC(c2cc(N3CCOCC3)nc(C)n2)CC1 | 25.94
* COCCN1CCOCC12CCN(c1nccs1)CC2.O=C(O)C(F)(F)F | 44.08
* COc1c(C2CCCN2C(=O)c2cnc(C)cn2)c(C)nn1C (stereo not drawn) | 86.16
* Cc1ncc(S(C)(=O)=O)c(N2CCCCCC2)n1 | 3.738
* CCN1CCOCC12CCN(c1nccs1)CC2.O=C(O)C(F)(F)F | -65.58
* Cn1cnn(Cc2ccccc2F)c1=O | -4.03
* COc1c(C2CCCN2C(=O)c2cnccn2)c(C)nn1C (stereo not drawn) | 114.6
* COCCN1CCOCC12CCN(c1cnccn1)CC2.O=C(O)C(F)(F)F | 110.8
* O=C(O)[C@@H]1CN(Cc2nc3ncccn3n2)C[C@H]1c1cccc(F)c1 | 4.961
* CCC(=O)N1CCc2nc(N3CCOCC3)nc(N(C)C)c2CC1 | -3.249
* CS(=O)(=O)c1cnc(N2CCCC2)nc1C1CCN(C(=O)C2CC2)CC1 | 114.1
* CC(NC(=O)Cn1cccnc1=O)c1ccc(C(F)(F)F)cc1 (stereo not drawn) | -2.849
* CC(C)C1CN(c2ncccn2)CCC(=O)N1Cc1ccc(F)cc1 (stereo not drawn) | -1.405
* COc1nccnc1N1CCN(Cc2cccc(F)c2)C(=O)C1 | -1.411
* CCc1nc(CC(=O)N2CCC(C(=O)N3CCCCC3)CC2)cs1 | 9.16

###

Some compounds, each annotated with its measured Percent Effect.
System: Wolbachia pipientis
experimental-protocol: Anti-Wolbachia Cell-Based Screen
Assay type: functional
Set-up: scale not given: in the data most compounds retested in dose-response had high values
settings: 5 µM
Among all 48,000 compounds or so, about 13,000 (27%) showed an effect of 50% or more. The list shows a part of the results.
property: Percent Effect (%)

- CC(C)CCCC(C)NC(=O)c1ccc(OCC(N)=O)cc1 (configuration not stated): -8.979
- O=C(NCc1ccccc1CN1CCOCC1)c1ccc(Br)cc1F: -0.3449
- CCN(Cc1ccc2c(c1)OCO2)C(=O)CCc1c(C)nc(C)[nH]c1=O: -8.876
- Cc1ncc(CN2CCCC2)c2cc(C(=O)c3ccc(Br)cc3)oc12.Cl: 139.8
- COc1cc2c(cc1OC)S(=O)(=O)N(Cc1cccc(C)c1)C2=O: -2.103
- O=C(c1ccc(N2CCCC2)nn1)N1CCCc2ccc(F)cc21: -11.11
- Cc1ccc2c(C)c(C(=O)NCCc3csc(N)n3)oc2c1: 32.42
- c1cnc(N2CCN(Cn3nccc3-c3cccnc3)CC2)nc1: 3.122
- O=C(O)c1ccc2[nH]cc(CN3CCOCC3)c2c1: -9.058
- Cc1cnc(NCC(C)(C)N2CCCCC2)nc1: 1.17
- Oc1cccc(CNCCC2CCCO2)c1 (configuration not stated): 17.11
- Cc1ncsc1CCN(C)C(=O)c1ccc(CN2CCCCC2)cc1: -41.8
